All figures here come from patent US20080176907A1.

SYSTEM_UNDER_TEST: iNOS (Mus musculus)
Sequence (P29477 whole entry): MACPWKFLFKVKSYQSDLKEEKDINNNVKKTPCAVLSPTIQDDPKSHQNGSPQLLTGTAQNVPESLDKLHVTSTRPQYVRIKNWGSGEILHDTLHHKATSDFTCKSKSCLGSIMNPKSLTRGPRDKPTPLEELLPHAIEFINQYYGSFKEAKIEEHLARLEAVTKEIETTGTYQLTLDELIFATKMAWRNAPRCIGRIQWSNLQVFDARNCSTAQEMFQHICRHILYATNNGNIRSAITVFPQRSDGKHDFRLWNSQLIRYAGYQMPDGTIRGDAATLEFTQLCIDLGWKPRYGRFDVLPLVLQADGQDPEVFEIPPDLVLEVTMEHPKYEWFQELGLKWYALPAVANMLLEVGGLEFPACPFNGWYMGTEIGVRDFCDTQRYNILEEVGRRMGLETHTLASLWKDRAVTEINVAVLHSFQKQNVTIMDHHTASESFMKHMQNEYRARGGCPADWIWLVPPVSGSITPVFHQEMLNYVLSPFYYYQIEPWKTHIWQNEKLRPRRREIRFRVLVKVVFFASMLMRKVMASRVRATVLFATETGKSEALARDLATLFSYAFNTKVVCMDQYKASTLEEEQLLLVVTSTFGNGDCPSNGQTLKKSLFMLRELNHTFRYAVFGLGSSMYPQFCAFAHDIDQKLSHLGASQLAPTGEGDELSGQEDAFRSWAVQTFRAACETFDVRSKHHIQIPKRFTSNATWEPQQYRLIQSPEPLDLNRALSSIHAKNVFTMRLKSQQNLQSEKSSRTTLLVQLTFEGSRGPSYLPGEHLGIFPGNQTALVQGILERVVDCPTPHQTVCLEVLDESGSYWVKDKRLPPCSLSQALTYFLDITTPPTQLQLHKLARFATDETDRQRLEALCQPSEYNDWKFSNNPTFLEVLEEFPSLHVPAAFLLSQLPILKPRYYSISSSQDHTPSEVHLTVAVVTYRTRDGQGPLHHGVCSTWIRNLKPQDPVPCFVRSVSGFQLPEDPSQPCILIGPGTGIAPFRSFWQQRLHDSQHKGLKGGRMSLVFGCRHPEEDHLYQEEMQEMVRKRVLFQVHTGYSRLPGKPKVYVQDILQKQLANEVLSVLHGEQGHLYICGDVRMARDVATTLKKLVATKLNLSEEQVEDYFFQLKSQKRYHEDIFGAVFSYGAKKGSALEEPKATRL
MEASUREMENT_PROTOCOL: biochemical
pKi: −log10 of the molar value.
MEASURED_QUANTITY: pKi

[[record]]
sample_smiles = "N=C(NCCC[C@H](N)C(=O)N[C@H]1CN[C@H](C(N)=O)C1)N[N+](=O)[O-]"
system_under_test = "iNOS (Mus musculus)"
value_reported = 4.54

[[record]]
sample_smiles = "N=C(NCCC[C@H](N)C(=O)O)N[N+](=O)[O-]"
system_under_test = "iNOS (Mus musculus)"
value_reported = 5.34

